Tested on: SN12C renal
PROTOCOL SUMMARY: NCI-60 one-dose screen, 48 h
CONDITION PARAMETERS: 10 µM unless noted
Compounds without any hit were thinned out: in the full panel of roughly 83,000, 20% have a hit. Calls of active or inactive are those of the source. The calls were made as follows: active = growth percent below 10; inactive = the rest.
Hi! Could you answer with just one of these? active, inactive

Please review the entries below; each comes with its answer.
1) c1ccc(-c2n(Cc3ccc4ccccc4c3)c3ccccc3[n+]2Cc2ccc3ccccc3c2)cc1 :: active
2) Nc1nc(-c2ccnc(Cl)c2)nn1-c1nc2ccccc2s1 :: inactive
3) O=C1c2ccccc2-c2nnc(-c3ccc(Br)cc3)cc21 :: inactive
4) COc1ccc2c(c1)c(=O)oc1c(C)c(OCC(C)=O)ccc12 :: inactive
5) Cc1c(C(=O)Nc2nc(-c3ccccc3)cs2)nnn1-c1ccccc1Br :: inactive
6) Cc1nc2cc(Nc3nc(N4CCOCC4)nc(N4CCN(C)CC4)n3)ccc2n1Cc1ccccc1 :: inactive

Outcome? Cc1cc(O)cc2c1[C@H]1CC[C@]3(C)[C@@H](O)CC[C@H]3[C@@H]1C=C2 inactive

Outcome? OB(O)c1ccccc1 inactive

====

Tested on: SW-620 colon
PROTOCOL SUMMARY: NCI-60 one-dose screen, 48 h
CONDITION PARAMETERS: 10 µM unless noted
The panel holds about 83,000 compounds, 20% with a hit somewhere; the sample as a whole holds those more often. The source made the active and inactive calls. How the source made its calls: active means growth percent below 10; inactive means the rest.
Hi! Could you answer with just one of these? active, inactive

Please review the entries below; each comes with its answer.
1) CCCCCn1c(=N)n(CC(O)COc2cccc(C)c2)c2ccccc21 (stereo not given) :: inactive
2) CC1SC(c2cccc(Oc3ccccc3)c2)N(CCc2cccs2)C1=O (stereo not given) :: active
3) CC(=O)OC[C@H](O)[C@@]1(O)CC[C@H]2[C@@H]3CCC4=CC(=O)CC[C@]4(C)[C@H]3[C@@H](O)C[C@@]21C :: inactive
4) COc1ncc(F)c(OC)n1 :: inactive

Outcome? COC(=O)C1C2CC3c4[nH]c5cc(OC)ccc5c4CCN3CC2CC(OC2CCCCO2)C1OC (stereo not given) inactive

Outcome? COC(=O)c1ccc(C(=O)Nc2ccccc2N)cc1 inactive

Outcome? O=S(=O)(Nc1ncccn1)c1ccc(Nc2ccc3nnc(-c4ccncc4)n3n2)cc1 inactive

Outcome? CN1CCc2cccc3c2C1Cc1ccc(O)c(O)c1-3 (stereo not given) inactive

====

Test system: SF-295 CNS
PROTOCOL SUMMARY: NCI-60 one-dose screen, 48 h (100 = growth as untreated, 0 = no growth, -100 = all killed)
CONDITION PARAMETERS: 10 µM unless noted
This is part of a sample that, as a whole, favours compounds with a hit. Of some 83,000 tested, about 20% had one in any assay.
Can you tell me growth for the items I'm about to list?
Numbers only, in %.

1) NS(=O)(=O)c1ccc(C(=O)N/N=C(\CS(=O)(=O)c2ccccc2)c2cc3cc(Br)ccc3o2)cc1 :: 101
2) O=c1oc2ccccc2cc1-c1csc(N=Nc2c(O)[nH]c3ccc(Br)cc23)n1 :: 101
3) NC1=NC(c2ccccc2OS(=O)(=O)c2ccc(Br)cc2)n2c(nc3ccccc32)N1 (stereo not given) :: 99.1

Record growth per entry; entries follow.
1. CCCN(CCC)c1ccc(/C=C/c2ccc3cc(OCC)ccc3n2)cc1
2. CCCCC(O)Cn1ncc(C(=O)OCC)c1NC(=O)NCc1ccccc1C(F)(F)F (stereo not given)

1: 91.9; 2: 94.3
